Where do the numbers come from? From the supplement of paper PMC8728848.

TESTED SYSTEM: Neu5Ac(b2-6)GalNAc
ASSAY REMARKS: glycan array binding signal (z-score within array); higher = stronger binding
EXPERIMENTAL SETUP: glycan notation: IUPAC condensed, linker removed
The sample as a whole holds a higher share of the strongest signals than the screen did.
Please note: Met applies when glycan array binding signal (z-score) is -0.3 or greater, and Not met applies otherwise.

Solved entries (count: 5):
| BINDER | CLASSIFICATION |
| --- | --- |
| LlpA (Burkholderia cenocepacia) (protein) MGSSHHHHHHSSGLVPRGSHKILGSNETLSAGNVVYSDNGQYHLAMQTDGNLVVYGPTGAVWQSQTSGSGGNRAVMQGDGNLVIYRADNTAAWSSKTAHPGAFLAVQDDGNVVIYWPRPAWASNTSDPATQQSAESKYLASGSTMSAGQTVTVAQYMLVFQADGNLVLYKNGGNPIWSTGTQGKGATYAVMQSDGNFVIYAGSTALWSTKTNGANGAQLVLQSDGNLVIYAPTAAWSTKFGLVTAPTSTSTSNNGPGSGICVGVCPPHPLNGNPFSPVGVGTTGLGFPTPGYPGAAF | Not met |
| Pwp1 (Candida glabrata) (protein) MGSSHHHHHHSSGLVPRGSHMASANPISITNVCQFPDNWARTAGFQATTVRLGLTIASNTYKELLNYPGLFNFATQKATVTQPNFSISGFPFFTGLYGLTVWPINLLVELQGYFVPPESGNYTFTLQGSDDAAILFFANPSTFACGSQNDWPQPREADITVTDTLVPSRTLYLVKGVAYPIRIAYYNGSGDGKLNVSFKDPSGTTHTDWKGYVWQYSNTCSTCTYT | Met |
| AidA (Burkholderia cenocepacia) (protein) MSRVTDVLVSFDTETILKKYPNPSKNPAAPTLIDWRYVYMVTNQDNVISGQAGGELDLKAQVGDLIRWRETSLSLGFENQVVFYKFIGNVGNDLISTPTPRVAEASIPVPNTSKPEVPTCQKVANYYWSSECLKVGRVTYHFQFQIIDRNCQSQGCFSWDPFISIHN | Met |
| GNAT (Pseudomonas aeruginosa), Q9HV14 (protein) MQLSHRPAETGDLETVAGFPQDRDELFYCYPKAIWPFSVAQLAAAIAERRGSTVAVHDGQVLGFANFYQWQHGDFCALGNMMVAPAARGLGVARYLIGVMENLAREQYKARLMKISCFNANAAGLLLYTQLGYQPRAIAERHDPDGRRVALIQMDKPLEP | Not met |
| Mg1lysM (Mycosphaerella graminicola) (protein) QRNPITITPQFDCGATNSQQYVARSGDTLTKIAQEIYHDVVGVCDIARANNLADPNRIDAGTPYTIPINCQTYDRNSCL | Met |

Asked: Is glycan array binding signal (z-score) for Gz-CVNH (Gibberella zeae) (protein) MGSSHHHHHHSSGLVPRGSHMGNFHESSNNIWLEDGHILHAECGNGEGDYVESTLDLDYYIGNDDGSFSWGGENFSGSASNITLDIEGDDNIPVLRAELNPMDGDPVEANVNLSERIGNDCGTLIFLA at or above -0.3?
Given back: Met

Asked: Another: Epa1to9 (Candida glabrata) (protein) MGSSHHHHHHSSGLVPRGSHMTSSNDISLASKDPTTFPLGCSPDITTPKKGLSMELYSYDFRKKGSYPCWDAAYLDPNYPRTGYKSHRLLAKVDGVTGNINFYYHATKGCTPQLGHLPASYNYPKPLTMTNFTMLLYGYFRPKVTGFHTFTISADDLLFVNFGAGNAFDCCRRDSSADHFGNYQAYAIWGSKTAKDELTVHLDAGVYYPIRLFYNNRDYHGALSFTFKTESNENTVSDFSEYFFSLDDTEEGCPGLISYD
Given back: Not met
